// reported binding signal per item
assayed_system: GST-Ap-NF-kB RHD (Exaiptasia pallida (Aiptasia), UniProt A0A913YAJ5 2-422)
Sequence: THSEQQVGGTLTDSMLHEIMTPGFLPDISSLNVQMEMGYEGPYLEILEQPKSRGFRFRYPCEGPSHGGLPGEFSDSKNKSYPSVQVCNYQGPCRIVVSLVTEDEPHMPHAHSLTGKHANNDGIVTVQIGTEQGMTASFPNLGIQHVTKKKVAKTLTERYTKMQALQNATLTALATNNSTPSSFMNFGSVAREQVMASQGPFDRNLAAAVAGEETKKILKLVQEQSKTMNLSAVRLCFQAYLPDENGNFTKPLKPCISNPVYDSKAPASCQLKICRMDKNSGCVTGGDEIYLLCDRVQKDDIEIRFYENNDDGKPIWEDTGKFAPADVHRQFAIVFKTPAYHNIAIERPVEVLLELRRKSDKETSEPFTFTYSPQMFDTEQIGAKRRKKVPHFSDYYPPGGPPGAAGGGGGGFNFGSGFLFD
assay_remarks: protein-binding microarray (PBM); PBM: ~300 nM protein, 6 mM HEPES pH 7.8, 80 mM KCl, 0.5 mM EDTA, 0.5 mM EGTA, 6% glycerol, 35 ng/ul poly-dIdC, 1% milk, 1 h, room temperature; high values mean tight binding
condition_notes: dsDNA, one strand shown
Reply with just the number (in z-score).

Observe how each entry below is paired with its result.
[[record]]
polymer_sequence = "CCGATTAACATCAGGGTATTCCATGATGTTAATCGGGTCTTGATTCGCTTGACGCTGCTG"
test_value = 3.89

[[record]]
polymer_sequence = "CCGATTAACATCAGGGATTCCAATGATGTTAATCGGGTCTTGATTCGCTTGACGCTGCTG"
test_value = 1.68

[[record]]
polymer_sequence = "CCGATTAACATCAAGGGAATTTATGATGTTAATCGGGTCTTGATTCGCTTGACGCTGCTG"
test_value = 4.54

[[record]]
polymer_sequence = "CCGATTAACATCAGGGGATCACCTGATGTTAATCGGGTCTTGATTCGCTTGACGCTGCTG"
test_value = 7.26

[[record]]
polymer_sequence = "CCGATTAACATCAGGACTTGCCCTGATGTTAATCGGGTCTTGATTCGCTTGACGCTGCTG"
test_value = 1.21

[[record]]
polymer_sequence = "CCGATTAACATCAGGGGACGTTATGATGTTAATCGGGTCTTGATTCGCTTGACGCTGCTG"
test_value = 4.77

[[record]]
polymer_sequence = "CCGATTAACATCACGGGAAAATCTGATGTTAATCGGGTCTTGATTCGCTTGACGCTGCTG"
test_value = 3.98

[[record]]
polymer_sequence = "CCGATTAACATCAAAAAATTCCCTGATGTTAATCGGGTCTTGATTCGCTTGACGCTGCTG"
test_value = 6.84

[[record]]
polymer_sequence = "CCGATTAACATCAAAAATCCCTATGATGTTAATCGGGTCTTGATTCGCTTGACGCTGCTG"
test_value = 5.18

[[record]]
polymer_sequence = "CCGATTAACATCAGGAATACCCATGATGTTAATCGGGTCTTGATTCGCTTGACGCTGCTG"
test_value = 4.37


Ask: Bench note: what binding signal did `CCGATTAACATCAGGAATACCCCTGATGTTAATCGGGTCTTGATTCGCTTGACGCTGCTG` show?
Result: 6.59

Ask: Bench note: what binding signal did `CCGATTAACATCAGATACCCCCCTGATGTTAATCGGGTCTTGATTCGCTTGACGCTGCTG` show?
Result: 6.55

Ask: Bench note: what binding signal did `CCGATTAACATCACACCCCCCCGTGATGTTAATCGGGTCTTGATTCGCTTGACGCTGCTG` show?
Result: 4.06

Ask: Bench note: what binding signal did `CCGATTAACATCAAGTATTCCCCTGATGTTAATCGGGTCTTGATTCGCTTGACGCTGCTG` show?
Result: 8.17

Ask: Bench note: what binding signal did `CCGATTAACATCAAATTTCCCAGTGATGTTAATCGGGTCTTGATTCGCTTGACGCTGCTG` show?
Result: 2.47

Ask: Bench note: what binding signal did `CCGATTAACATCAACAAACCCCCTGATGTTAATCGGGTCTTGATTCGCTTGACGCTGCTG` show?
Result: 6.74

Ask: Bench note: what binding signal did `CCGATTAACATCAGGGGAATACCTGATGTTAATCGGGTCTTGATTCGCTTGACGCTGCTG` show?
Result: 9.84

Ask: Bench note: what binding signal did `CCGATTAACATCAGGGGGTTAGATGATGTTAATCGGGTCTTGATTCGCTTGACGCTGCTG` show?
Result: 3.78

###

assayed_system: GST-Ap-NF-kB RHD (Exaiptasia pallida (Aiptasia), UniProt A0A913YAJ5 2-422)
Sequence: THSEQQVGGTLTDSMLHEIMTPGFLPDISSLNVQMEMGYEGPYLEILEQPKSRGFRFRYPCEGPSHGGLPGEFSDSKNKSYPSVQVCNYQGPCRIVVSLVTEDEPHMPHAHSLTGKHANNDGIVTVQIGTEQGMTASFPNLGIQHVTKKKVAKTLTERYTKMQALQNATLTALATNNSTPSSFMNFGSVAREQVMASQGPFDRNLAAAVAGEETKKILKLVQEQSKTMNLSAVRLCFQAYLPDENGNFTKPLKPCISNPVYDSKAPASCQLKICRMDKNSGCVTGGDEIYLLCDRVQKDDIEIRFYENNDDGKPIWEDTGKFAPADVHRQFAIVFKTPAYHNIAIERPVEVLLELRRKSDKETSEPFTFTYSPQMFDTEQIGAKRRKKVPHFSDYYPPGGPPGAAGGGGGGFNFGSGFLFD
assay_remarks: protein-binding microarray (PBM); PBM: ~300 nM protein, 6 mM HEPES pH 7.8, 80 mM KCl, 0.5 mM EDTA, 0.5 mM EGTA, 6% glycerol, 35 ng/ul poly-dIdC, 1% milk, 1 h, room temperature; high values mean tight binding
condition_notes: dsDNA, one strand shown
// reported binding signal per item
Reply with just the number (in z-score).

[[record]]
polymer_sequence = "CCGATTAACATCAGGGAGTCCCATGATGTTAATCGGGTCTTGATTCGCTTGACGCTGCTG"
test_value = 4.64

[[record]]
polymer_sequence = "CCGATTAACATCAGAGTTTCCCCTGATGTTAATCGGGTCTTGATTCGCTTGACGCTGCTG"
test_value = 7.08

[[record]]
polymer_sequence = "CCGATTAACATCACAGCCCCCCCTGATGTTAATCGGGTCTTGATTCGCTTGACGCTGCTG"
test_value = 4.64


Ask: Any idea what binding signal came out for `CCGATTAACATCAAAAATCCCCTTGATGTTAATCGGGTCTTGATTCGCTTGACGCTGCTG` on GST-Ap-NF-kB RHD (Exaiptasia pallida (Aiptasia), UniProt A0A913YAJ5 2-422)?
Result: 10.4

Ask: Any idea what binding signal came out for `CCGATTAACATCACCCTTCCCCCTGATGTTAATCGGGTCTTGATTCGCTTGACGCTGCTG` on GST-Ap-NF-kB RHD (Exaiptasia pallida (Aiptasia), UniProt A0A913YAJ5 2-422)?
Result: 4.54

###

assayed_system: GST-Dm-Relish (Drosophila melanogaster, UniProt Q94527 99-473)
Sequence: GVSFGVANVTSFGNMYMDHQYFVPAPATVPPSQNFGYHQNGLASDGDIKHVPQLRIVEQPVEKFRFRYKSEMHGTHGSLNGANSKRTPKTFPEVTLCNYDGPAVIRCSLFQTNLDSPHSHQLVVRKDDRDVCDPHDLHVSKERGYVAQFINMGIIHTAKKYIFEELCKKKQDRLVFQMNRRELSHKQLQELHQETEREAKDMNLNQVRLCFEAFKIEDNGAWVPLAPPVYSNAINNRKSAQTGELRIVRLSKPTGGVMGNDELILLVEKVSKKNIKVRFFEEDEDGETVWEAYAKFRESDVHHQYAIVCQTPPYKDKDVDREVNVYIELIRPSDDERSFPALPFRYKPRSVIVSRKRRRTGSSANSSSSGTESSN
assay_remarks: protein-binding microarray (PBM); PBM: ~300 nM protein, 6 mM HEPES pH 7.8, 80 mM KCl, 0.5 mM EDTA, 0.5 mM EGTA, 6% glycerol, 35 ng/ul poly-dIdC, 1% milk, 1 h, room temperature; Ap Aiptasia and Nv Nematostella (sea anemones) / Co Capsaspora / Aq Amphimedon (sponge) / Dm Drosophila / Hu human; RHD is the Rel homology domain; high values mean tight binding
condition_notes: dsDNA, one strand shown
quantity_name: binding signal (z-score)
Reply with just the number (in z-score).

[[record]]
polymer_sequence = "CCGATTAACATCAAGGGTGGGAATGATGTTAATCGGGTCTTGATTCGCTTGACGCTGCTG"
quantity_name = "binding signal"
test_value = 1.66

[[record]]
polymer_sequence = "CCGATTAACATCAGGGTTCCCCATGATGTTAATCGGGTCTTGATTCGCTTGACGCTGCTG"
quantity_name = "binding signal"
test_value = 7.85

[[record]]
polymer_sequence = "CCGATTAACATCAGGAATTACCCTGATGTTAATCGGGTCTTGATTCGCTTGACGCTGCTG"
quantity_name = "binding signal"
test_value = 6.61

[[record]]
polymer_sequence = "CCGATTAACATCACGGAATTCCATGATGTTAATCGGGTCTTGATTCGCTTGACGCTGCTG"
quantity_name = "binding signal"
test_value = 1.4

[[record]]
polymer_sequence = "CCGATTAACATCAAAGATTCCCCTGATGTTAATCGGGTCTTGATTCGCTTGACGCTGCTG"
quantity_name = "binding signal"
test_value = 7.42

[[record]]
polymer_sequence = "CCGATTAACATCAGGGAACTACATGATGTTAATCGGGTCTTGATTCGCTTGACGCTGCTG"
quantity_name = "binding signal"
test_value = 8.31

[[record]]
polymer_sequence = "CCGATTAACATCAGCCCCCCGTCTGATGTTAATCGGGTCTTGATTCGCTTGACGCTGCTG"
quantity_name = "binding signal"
test_value = 3.83

[[record]]
polymer_sequence = "CCGATTAACATCAAATAAATTCCTGATGTTAATCGGGTCTTGATTCGCTTGACGCTGCTG"
quantity_name = "binding signal"
test_value = 1.27


Ask: Bench note: what binding signal did `CCGATTAACATCAAAAAACACCCTGATGTTAATCGGGTCTTGATTCGCTTGACGCTGCTG` show?
Result: 6.06

Ask: Bench note: what binding signal did `CCGATTAACATCAAGTGATTTCCTGATGTTAATCGGGTCTTGATTCGCTTGACGCTGCTG` show?
Result: 4.18

Ask: Bench note: what binding signal did `CCGATTAACATCAGGGGACACCCTGATGTTAATCGGGTCTTGATTCGCTTGACGCTGCTG` show?
Result: 7.15

Ask: Bench note: what binding signal did `CCGATTAACATCACAAGTTCCCCTGATGTTAATCGGGTCTTGATTCGCTTGACGCTGCTG` show?
Result: 6.56

Ask: Bench note: what binding signal did `CCGATTAACATCAACGCCCCCCCTGATGTTAATCGGGTCTTGATTCGCTTGACGCTGCTG` show?
Result: 4.35

Ask: Bench note: what binding signal did `CCGATTAACATCAGGGGGAACTATGATGTTAATCGGGTCTTGATTCGCTTGACGCTGCTG` show?
Result: 4.89

Ask: Bench note: what binding signal did `CCGATTAACATCAAGGGGGGGGATGATGTTAATCGGGTCTTGATTCGCTTGACGCTGCTG` show?
Result: 5.31
